Test: Solubility profiling at various pHs
Type: physicochemical
Conditions: 0.15 M NaCl (aq), pH-adjusted, 25 °C, saline or isotonic, thermodynamic from solid, Media pH 4, original pH 3.97, final pH 4.22
QUANTITY_MEASURED: solubility at 24 h

Please give the measured solubility at 24 h for this molecule: CCN(Cc1cc(C(F)(F)F)ccc1-c1cc(CC(=O)O)ccc1OC)C(=O)NCc1ccccc1
3.5 µg/mL

----------
Assay: clinical
Conditions: human, plasma, po, 100 mg
QUANTITY_MEASURED: Cmax (µg/mL)
Please give a number only; it is taken to be in µg/mL.

Please give the measured Cmax for this compound: CCN(Cc1cc(C(F)(F)F)ccc1-c1cc(CC(=O)O)ccc1OC)C(=O)NCc1ccccc1
0.081

----------
Assay: in vivo
Settings: Hartley, guinea pig, plasma, po, 10 mg/kg
QUANTITY_MEASURED: concentration at 2.5 h

Please give the measured concentration at 2.5 h for this compound: CCN(Cc1cc(C(F)(F)F)ccc1-c1cc(CC(=O)[O-])ccc1OC)C(=O)NCc1ccccc1.[Na+] [Compound 2, sodium salt]
222 nM

----------
Test: in vivo
Settings: Hartley, guinea pig, in vivo
QUANTITY_MEASURED: concentration at 18.5 h

Please give the measured concentration at 18.5 h for this compound: CCN(Cc1cc(C(F)(F)F)ccc1-c1cc(CC(=O)O)ccc1OC)C(=O)NCc1ccccc1
< 40 nM

----------
Target: Cytochrome P450 Enzyme 3A4 (Homo sapiens, UniProt P08684)
Sequence (P08684 whole entry): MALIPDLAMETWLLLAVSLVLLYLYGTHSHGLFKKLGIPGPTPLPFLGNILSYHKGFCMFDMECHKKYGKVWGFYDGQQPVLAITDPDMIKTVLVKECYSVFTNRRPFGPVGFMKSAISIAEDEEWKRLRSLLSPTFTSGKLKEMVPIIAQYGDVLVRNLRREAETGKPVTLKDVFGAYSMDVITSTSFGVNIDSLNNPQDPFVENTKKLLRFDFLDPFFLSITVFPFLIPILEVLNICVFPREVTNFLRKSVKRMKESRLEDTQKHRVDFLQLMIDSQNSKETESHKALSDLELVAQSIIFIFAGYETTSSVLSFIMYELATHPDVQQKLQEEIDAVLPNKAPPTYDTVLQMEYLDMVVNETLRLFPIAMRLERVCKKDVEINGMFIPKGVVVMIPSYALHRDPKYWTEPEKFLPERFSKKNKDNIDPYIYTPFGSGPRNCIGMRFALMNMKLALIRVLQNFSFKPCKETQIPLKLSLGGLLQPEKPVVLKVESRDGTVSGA
Conditions: IC50, midazolam 1-hydroxylation, microsomes
Experimental: In general, microsomes at protein concentrations as defined in Table 12 were mixed with buffer (100 mM KH2PO4, pH 7.4), MgCl2 (6 mM)) and substrate, and were kept on ice. Aliquots of this mixture (89 μL) were delivered to each well of a 96-well polypropylene plate which contained an aliquot of inhibitor (1 μL) in acetonitrile:water (1:1). Final solvent concentrations were less than 1% (v/v). Incubations were initiated with the addition of 10 μL β-NADPH (10 mM stock) to a final volume of 100 μL. […]
QUANTITY_MEASURED: IC50 (µM)
Please give a number only; it is taken to be in µM.

Please give the measured IC50 for this compound: CCN(Cc1cc(C(F)(F)F)ccc1-c1cc(CC(=O)[O-])ccc1OC)C(=O)NCc1ccccc1.[Na+] [Compound 2, sodium salt]
40

----------
Test: clinical
Details: human, plasma, po, 300 mg
QUANTITY_MEASURED: AUC(0-t)
Remember to follow the number with its unit.

Please give the measured AUC(0-t) for this molecule: CCN(Cc1cc(C(F)(F)F)ccc1-c1cc(CC(=O)O)ccc1OC)C(=O)NCc1ccccc1 [Compound 1]
1420 ng·h/mL

----------
Assay: in vivo
Settings: mouse, plasma, po, 10 mg/kg
QUANTITY_MEASURED: concentration at 2 h (nM)
Please give a number only; it is taken to be in nM.

Please give the measured concentration at 2 h for this molecule: CCN(Cc1cc(C(F)(F)F)ccc1-c1cc(CC(=O)O)ccc1OC)C(=O)NCc1ccccc1
150

----------
Test: clinical
Settings: human, plasma, oral, 30 mg
QUANTITY_MEASURED: Cmax (ng/mL)
Please give a number only; it is taken to be in ng/mL.

Please give the measured Cmax for this molecule: CCN(Cc1cc(C(F)(F)F)ccc1-c1cc(CC(=O)O)ccc1OC)C(=O)NCc1ccccc1 [Compound 1]
16

----------
Biological target: recombinant human CRTH2 receptor (Homo sapiens)
Sequence (Q9Y5Y4 1-395): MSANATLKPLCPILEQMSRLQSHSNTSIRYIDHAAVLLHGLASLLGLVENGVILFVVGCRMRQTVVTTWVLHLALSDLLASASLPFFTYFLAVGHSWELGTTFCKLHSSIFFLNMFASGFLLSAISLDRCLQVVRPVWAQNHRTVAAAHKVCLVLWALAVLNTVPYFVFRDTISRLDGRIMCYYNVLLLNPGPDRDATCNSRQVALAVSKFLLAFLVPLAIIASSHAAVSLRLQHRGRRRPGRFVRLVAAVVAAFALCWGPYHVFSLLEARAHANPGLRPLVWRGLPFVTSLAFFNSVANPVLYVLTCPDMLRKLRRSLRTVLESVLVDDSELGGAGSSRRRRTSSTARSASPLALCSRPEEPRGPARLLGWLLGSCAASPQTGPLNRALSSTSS
Assay: In vitro GTPγS binding assay
Settings: CHO membranes, 80 nM PGD2, 0.2% human serum albumin
QUANTITY_MEASURED: IC50

Please tell me: IC50 of CCN(Cc1cc(C(F)(F)F)ccc1-c1cc(CC(=O)O)ccc1OC)C(=O)NCc1ccccc1 , system recombinant human CRTH2 receptor (Homo sapiens)?
< 20 nM

----------
Assay: clinical
Conditions: human, plasma, po, 30 mg
QUANTITY_MEASURED: half-life
Remember to follow the number with its unit.

Please give the measured half-life for this compound: CCN(Cc1cc(C(F)(F)F)ccc1-c1cc(CC(=O)O)ccc1OC)C(=O)NCc1ccccc1 [Compound 1]
6.6 h

----------
Molecular target: mouse DP2 receptor (Mus musculus)
Construct: expressed in transfected cells
Sequence (Q9Z2J6 whole entry): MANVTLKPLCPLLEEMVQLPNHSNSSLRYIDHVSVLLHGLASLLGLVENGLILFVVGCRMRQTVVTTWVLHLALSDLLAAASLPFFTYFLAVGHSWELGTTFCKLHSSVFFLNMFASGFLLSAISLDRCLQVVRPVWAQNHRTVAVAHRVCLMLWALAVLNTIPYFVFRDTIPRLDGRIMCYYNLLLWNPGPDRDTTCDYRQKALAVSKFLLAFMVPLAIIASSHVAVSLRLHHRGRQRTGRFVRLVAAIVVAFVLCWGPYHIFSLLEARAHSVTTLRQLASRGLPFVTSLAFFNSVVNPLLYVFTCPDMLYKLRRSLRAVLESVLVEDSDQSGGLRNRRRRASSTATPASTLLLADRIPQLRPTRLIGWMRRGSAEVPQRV
Assay: DP2 radioligand membrane binding assay, mouse
Conditions: mouse DP2, membrane binding; read-out: average IC50, inhibition of radiolabeled PGD2 binding
QUANTITY_MEASURED: pIC50
Just so you know, pIC50 here is -log10 of the concentration in molar units; reply with that number alone.

Please give the measured pIC50 for this compound: CCN(Cc1cc(C(F)(F)F)ccc1-c1cc(CC(=O)O)ccc1OC)C(=O)NCc1ccccc1 [Compound 1]
8.11

----------
Target: DP2 receptor (Homo sapiens)
Sequence (Q9Y5Y4 1-395): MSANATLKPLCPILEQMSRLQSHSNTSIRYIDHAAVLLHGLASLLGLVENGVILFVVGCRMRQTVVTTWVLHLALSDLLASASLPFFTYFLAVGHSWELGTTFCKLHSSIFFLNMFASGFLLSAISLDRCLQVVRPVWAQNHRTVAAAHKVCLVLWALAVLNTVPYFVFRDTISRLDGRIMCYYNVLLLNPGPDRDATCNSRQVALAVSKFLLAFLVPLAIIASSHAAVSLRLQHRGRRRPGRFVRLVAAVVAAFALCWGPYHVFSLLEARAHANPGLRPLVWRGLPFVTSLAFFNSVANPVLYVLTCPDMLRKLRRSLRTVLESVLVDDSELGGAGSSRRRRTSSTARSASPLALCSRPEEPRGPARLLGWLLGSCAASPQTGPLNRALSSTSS
Experiment: In vitro DP2/CRTH2 radioligand binding assay ([3H]PGD2), human
Design: expressed in transfected cells
Conditions: human DP2, membrane binding; read-out: average IC50, inhibition of radiolabeled PGD2 binding
QUANTITY_MEASURED: IC50 (nM)
Please give a number only; it is taken to be in nM.

Please give the measured IC50 for this molecule: CCN(Cc1cc(C(F)(F)F)ccc1-c1cc(CC(=O)O)ccc1OC)C(=O)NCc1ccccc1 [Compound 1]
4.9

----------
Target: rat DP2 (Rattus norvegicus, UniProt Q6XKD3)
Sequence (Q6XKD3 1-403): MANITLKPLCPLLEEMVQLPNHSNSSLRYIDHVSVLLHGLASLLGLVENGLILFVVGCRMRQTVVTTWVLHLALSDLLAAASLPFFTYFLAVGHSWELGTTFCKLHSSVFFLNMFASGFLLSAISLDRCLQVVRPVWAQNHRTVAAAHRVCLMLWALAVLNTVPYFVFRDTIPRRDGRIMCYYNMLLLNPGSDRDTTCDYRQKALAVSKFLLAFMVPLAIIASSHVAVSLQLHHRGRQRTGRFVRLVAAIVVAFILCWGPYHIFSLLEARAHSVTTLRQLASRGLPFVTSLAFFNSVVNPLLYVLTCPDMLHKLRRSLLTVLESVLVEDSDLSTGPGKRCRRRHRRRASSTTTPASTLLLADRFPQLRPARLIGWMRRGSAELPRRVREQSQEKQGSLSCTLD
QUANTITY_MEASURED: IC50 (nM)
Please give a number only; it is taken to be in nM.

Please give the measured IC50 for this molecule: CCN(Cc1cc(C(F)(F)F)ccc1-c1cc(CC(=O)O)ccc1OC)C(=O)NCc1ccccc1
10.4

----------
Target: guinea pig DP2 receptor (Cavia porcellus)
Sequence (H0W1T0 1-391): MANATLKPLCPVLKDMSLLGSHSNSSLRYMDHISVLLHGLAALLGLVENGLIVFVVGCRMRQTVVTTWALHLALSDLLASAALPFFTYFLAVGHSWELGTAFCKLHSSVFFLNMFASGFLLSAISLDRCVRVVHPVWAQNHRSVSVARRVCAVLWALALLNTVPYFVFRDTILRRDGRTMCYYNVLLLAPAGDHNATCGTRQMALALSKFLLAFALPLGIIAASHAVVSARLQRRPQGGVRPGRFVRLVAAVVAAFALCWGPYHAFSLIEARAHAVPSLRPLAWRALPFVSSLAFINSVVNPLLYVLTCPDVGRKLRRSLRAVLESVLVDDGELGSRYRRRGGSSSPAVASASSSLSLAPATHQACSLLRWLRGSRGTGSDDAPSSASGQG
Assay: DP2 radioligand membrane binding assay, guinea pig
Conditions: average IC50, inhibition of radiolabeled PGD2 binding, guinea pig DP2, membrane binding
QUANTITY_MEASURED: IC50 (nM)
Please give a number only; it is taken to be in nM.

Please give the measured IC50 for this compound: CCN(Cc1cc(C(F)(F)F)ccc1-c1cc(CC(=O)O)ccc1OC)C(=O)NCc1ccccc1
4.9
